src = the supplement of paper PMC6125532

System: Mycobacterium tuberculosis CRY-12; CRY-24
observed.property: MIC (REMA)

# structure.smiles, tgt, observed.property, result
records = [
    ("CC(=O)NC[C@H]1CN(c2ccc(N3CCOCC3)c(F)c2)C(=O)O1", "Mycobacterium tuberculosis CRY-12; CRY-24", "MIC (REMA)", "0.25 µg/mL"),
]

Please supply the value of reported MIC (REMA) for the item CO[C@H]1/C=C/O[C@@]2(C)Oc3c(C)c(O)c4c(O)c(c(/C=N/N5CCN(C)CC5)c(O)c4c3C2=O)NC(=O)/C(C)=C\C=C\[C@H](C)[C@H](O)[C@@H](C)[C@@H](O)[C@@H](C)[C@H](OC(C)=O)[C@@H]1C
0.015 µg/mL

Note down MIC (REMA) recorded for NCC[C@H](O)C(=O)N[C@@H]1C[C@H](N)[C@@H](O[C@H]2O[C@H](CN)[C@@H](O)[C@H](O)[C@H]2O)[C@H](O)[C@H]1O[C@H]1O[C@H](CO)[C@@H](O)[C@H](N)[C@H]1O
> 16 µg/mL

Please indicate MIC (REMA) recorded for NC[C@H]1O[C@H](O[C@H]2[C@H](O)[C@@H](O[C@H]3O[C@H](CO)[C@@H](O)[C@H](N)[C@H]3O)[C@H](N)C[C@@H]2N)[C@H](O)[C@@H](O)[C@@H]1O
> 32 µg/mL

State, in one line, measured MIC (REMA) of COc1c(N2C[C@@H]3CCCN[C@@H]3C2)c(F)cc2c(=O)c(C(=O)O)cn(C3CC3)c12
0.06 µg/mL

Give MIC (REMA) for CO[C@H]1/C=C/O[C@@]2(C)Oc3c(C)c(O)c4c(c3C2=O)C2=NC3(CCN(CC(C)C)CC3)NC2=C(NC(=O)/C(C)=C\C=C\[C@H](C)[C@H](O)[C@@H](C)[C@@H](O)[C@@H](C)[C@H](OC(C)=O)[C@@H]1C)C4=O
≤ 0.004 µg/mL
